biological target: UniProtKB P25116; test: PAR1 binding test (radioligand displacement, membrane preparation); conditions: human PAR1 expressed in High Five insect cell membranes; radioligand 20 nM; read-out: Inhibition of binding IC50
Sequence (P25116 22-425): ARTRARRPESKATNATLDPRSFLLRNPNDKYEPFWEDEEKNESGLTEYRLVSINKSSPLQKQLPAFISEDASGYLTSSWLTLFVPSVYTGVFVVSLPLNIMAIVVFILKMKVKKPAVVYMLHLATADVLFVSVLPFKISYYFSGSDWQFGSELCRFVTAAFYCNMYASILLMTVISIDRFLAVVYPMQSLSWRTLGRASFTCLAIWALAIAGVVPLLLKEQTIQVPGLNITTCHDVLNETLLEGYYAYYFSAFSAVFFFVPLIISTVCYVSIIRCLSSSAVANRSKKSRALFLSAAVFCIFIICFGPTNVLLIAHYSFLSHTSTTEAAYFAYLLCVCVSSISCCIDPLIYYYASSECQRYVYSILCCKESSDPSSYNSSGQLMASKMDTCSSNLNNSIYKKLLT
measurement_kind: IC50 (µM)

A selection of reference data follows.
# molecule, measurement_kind, measure_unit, assay_result
measured = [
    ("CCC(CC)Oc1ccc2n(n1)c(N)n[n+]2CC(=O)c1cc(OC)cc(C(C)C)c1 [Example 46]", "IC50", "µM", 0.114),
    ("CCC(CC)Oc1nn2c(N)n[n+](CC(=O)c3cc(N4CCOCC4)c(OC)c(C(C)(C)C)c3)c2cc1C1CC1 [Example 76]", "IC50", "µM", 1.4),
    ("CCOc1cc(C(=O)C[n+]2nc(N)n3nc(OC(CC)CC)ccc32)cc(C(C)(C)C)c1OCC [Example 29]", "IC50", "µM", 0.136),
    ("CCOCc1cc(C(=O)C[n+]2nc(N)n3nc(OC(CC)CC)ccc32)cc(C(C)(C)C)c1 [Example 27]", "IC50", "µM", 0.152),
    ("CCC(CC)Oc1ccc2n(n1)c(N)n[n+]2CC(=O)c1cc(OC)cc(OCC2CCCCC2)c1 [Example 47]", "IC50", "µM", 10),
    ("CCC(CC)Oc1ccc2n(n1)c(N)n[n+]2CC(=O)c1cc(Cl)cc(OC)c1 [Example 40]", "IC50", "µM", 0.601),
]

[I] CCC(CC)Oc1ccc2n(n1)c(N)n[n+]2CC(=O)c1cc(OCC2CC2)cc(C(C)(C)C)c1 [Example 35]
[II] CCC(CC)Oc1ccc2n(n1)c(N)n[n+]2CC(=O)c1cc(OCCOC)cc(C(C)(C)C)c1 [Example 54]
**Q:** Lower value of IC50 belongs to which: I or II ? Give the chosen item's label as your response.
**A:** II

The values you see were collected from patent US8853206B2.
